B1: PhoQ; a variant is named by its letters at X, in order, P23837 (parent)
chain: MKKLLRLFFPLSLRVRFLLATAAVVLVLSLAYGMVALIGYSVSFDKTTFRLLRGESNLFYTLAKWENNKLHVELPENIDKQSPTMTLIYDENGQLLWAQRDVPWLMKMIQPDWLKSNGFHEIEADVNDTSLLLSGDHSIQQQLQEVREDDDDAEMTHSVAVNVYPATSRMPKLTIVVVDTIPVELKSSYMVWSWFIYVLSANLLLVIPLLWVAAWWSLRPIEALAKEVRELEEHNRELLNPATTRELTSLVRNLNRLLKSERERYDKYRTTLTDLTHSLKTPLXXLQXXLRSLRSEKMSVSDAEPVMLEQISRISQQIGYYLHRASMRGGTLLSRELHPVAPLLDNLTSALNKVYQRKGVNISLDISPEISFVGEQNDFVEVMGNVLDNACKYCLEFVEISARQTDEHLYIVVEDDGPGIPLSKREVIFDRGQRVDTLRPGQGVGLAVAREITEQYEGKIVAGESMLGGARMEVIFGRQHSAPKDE

Variants of: B1
Assay: enrichment ratio after two sorts for PhoP signalling (ratio (wild type AVST 3.29)); higher = more functional
Details: with PhoP (E. coli)
In all, about 140,000 sequences were measured (“enrichment ratio after two sorts for PhoP signalling”: median about 0, highest 2% from about 11 on). Many of the other results were omitted from the sample, so the highest values are more common in it than they were.
Endpoint label: enrichment ratio

Variant spec: FCSS
Endpoint label: enrichment ratio
Recorded value: ≤ 0.25
--
Variant spec: WTDY
Endpoint label: enrichment ratio
Recorded value: ≤ 0.25
--
Variant spec: NYNA
Endpoint label: enrichment ratio
Recorded value: ≤ 0.25
--
Variant spec: MTCQ
Endpoint label: enrichment ratio
Recorded value: ≤ 0.25
--
Variant spec: KYAK
Endpoint label: enrichment ratio
Recorded value: ≤ 0.25
--
Variant spec: TPLC
Endpoint label: enrichment ratio
Recorded value: ≤ 0.25
--
Variant spec: TCDT
Endpoint label: enrichment ratio
Recorded value: ≤ 0.25
--
Variant spec: ECNY
Endpoint label: enrichment ratio
Recorded value: ≤ 0.25
--
Variant spec: SMPC
Endpoint label: enrichment ratio
Recorded value: ≤ 0.25
--
Variant spec: CMAC
Endpoint label: enrichment ratio
Recorded value: 23.4
--
Variant spec: SELV
Endpoint label: enrichment ratio
Recorded value: 19.5
--
Variant spec: YGLA
Endpoint label: enrichment ratio
Recorded value: 12.8
--
Variant spec: TTLC
Endpoint label: enrichment ratio
Recorded value: 14.4
--
Variant spec: TQRL
Endpoint label: enrichment ratio
Recorded value: ≤ 0.25
--
Variant spec: TSAF
Endpoint label: enrichment ratio
Recorded value: 7.11
--
Variant spec: TVNT
Endpoint label: enrichment ratio
Recorded value: 8.93
--
Variant spec: NNAC
Endpoint label: enrichment ratio
Recorded value: ≤ 0.25
--
Variant spec: FQAM
Endpoint label: enrichment ratio
Recorded value: ≤ 0.25
--
Variant spec: AKND
Endpoint label: enrichment ratio
Recorded value: ≤ 0.25
--
Variant spec: GTAM
Endpoint label: enrichment ratio
Recorded value: ≤ 0.25
--
Variant spec: KHEF
Endpoint label: enrichment ratio
Recorded value: ≤ 0.25
--
Variant spec: KCAY
Endpoint label: enrichment ratio
Recorded value: ≤ 0.25
--
Variant spec: DANA
Endpoint label: enrichment ratio
Recorded value: ≤ 0.25
--
Variant spec: ALRD
Endpoint label: enrichment ratio
Recorded value: ≤ 0.25
--
Variant spec: NQAM
Endpoint label: enrichment ratio
Recorded value: ≤ 0.25
--
Variant spec: WEIC
Endpoint label: enrichment ratio
Recorded value: ≤ 0.25
--
Variant spec: YTCQ
Endpoint label: enrichment ratio
Recorded value: 1.7
--
Variant spec: TTCQ
Endpoint label: enrichment ratio
Recorded value: 18.9
--
Variant spec: IQTC
Endpoint label: enrichment ratio
Recorded value: ≤ 0.25
--
Variant spec: ITAM
Endpoint label: enrichment ratio
Recorded value: 0.308
--
Variant spec: DVYV
Endpoint label: enrichment ratio
Recorded value: ≤ 0.25
--
Variant spec: YKSC
Endpoint label: enrichment ratio
Recorded value: ≤ 0.25
--
Variant spec: WKFR
Endpoint label: enrichment ratio
Recorded value: ≤ 0.25
--
Variant spec: TQYS
Endpoint label: enrichment ratio
Recorded value: 12.5
--
Variant spec: TQLV
Endpoint label: enrichment ratio
Recorded value: 26.3
--
Variant spec: KFYQ
Endpoint label: enrichment ratio
Recorded value: ≤ 0.25
--
Variant spec: EQLV
Endpoint label: enrichment ratio
Recorded value: ≤ 0.25
--
Variant spec: NQLV
Endpoint label: enrichment ratio
Recorded value: ≤ 0.25
--
Variant spec: NHND
Endpoint label: enrichment ratio
Recorded value: ≤ 0.25
--
Variant spec: SFAT
Endpoint label: enrichment ratio
Recorded value: ≤ 0.25
--
Variant spec: SNLC
Endpoint label: enrichment ratio
Recorded value: 11.3
--
Variant spec: TCAY
Endpoint label: enrichment ratio
Recorded value: 14.1
--
Variant spec: WIAG
Endpoint label: enrichment ratio
Recorded value: ≤ 0.25
--
Variant spec: QDRE
Endpoint label: enrichment ratio
Recorded value: ≤ 0.25
--
Variant spec: KMAC
Endpoint label: enrichment ratio
Recorded value: ≤ 0.25
--
Variant spec: NMRM
Endpoint label: enrichment ratio
Recorded value: ≤ 0.25
--
Variant spec: SWFV
Endpoint label: enrichment ratio
Recorded value: ≤ 0.25
--
Variant spec: SHND
Endpoint label: enrichment ratio
Recorded value: ≤ 0.25
--
Variant spec: TCSK
Endpoint label: enrichment ratio
Recorded value: 13.7
--
Variant spec: TCNT
Endpoint label: enrichment ratio
Recorded value: 7.62
--
Variant spec: YGLS
Endpoint label: enrichment ratio
Recorded value: 7.31
--
Variant spec: TMAC
Endpoint label: enrichment ratio
Recorded value: 28.2
--
Variant spec: SELC
Endpoint label: enrichment ratio
Recorded value: 20.4
--
Variant spec: SIAK
Endpoint label: enrichment ratio
Recorded value: 11.2
--
Variant spec: KCSS
Endpoint label: enrichment ratio
Recorded value: ≤ 0.25
--
Variant spec: TKND
Endpoint label: enrichment ratio
Recorded value: 12.6
--
Variant spec: DCLA
Endpoint label: enrichment ratio
Recorded value: ≤ 0.25
--
Variant spec: TIAG
Endpoint label: enrichment ratio
Recorded value: 21.3
--
Variant spec: TQTH
Endpoint label: enrichment ratio
Recorded value: 6.85
--
Variant spec: SNAM
Endpoint label: enrichment ratio
Recorded value: 13.5
--
Variant spec: KKAG
Endpoint label: enrichment ratio
Recorded value: ≤ 0.25
--
Variant spec: CSYF
Endpoint label: enrichment ratio
Recorded value: ≤ 0.25
--
Variant spec: GECA
Endpoint label: enrichment ratio
Recorded value: 1.47
--
Variant spec: SITI
Endpoint label: enrichment ratio
Recorded value: 19.7
--
Variant spec: SILY
Endpoint label: enrichment ratio
Recorded value: ≤ 0.25
--
Variant spec: ITCQ
Endpoint label: enrichment ratio
Recorded value: ≤ 0.25
--
Variant spec: SFDP
Endpoint label: enrichment ratio
Recorded value: ≤ 0.25
--
Variant spec: TCAT
Endpoint label: enrichment ratio
Recorded value: 14.5
--
Variant spec: WIAK
Endpoint label: enrichment ratio
Recorded value: ≤ 0.25
--
Variant spec: TQCL
Endpoint label: enrichment ratio
Recorded value: 12.5
--
Variant spec: MKND
Endpoint label: enrichment ratio
Recorded value: ≤ 0.25
--
Variant spec: SRLC
Endpoint label: enrichment ratio
Recorded value: ≤ 0.25
--
Variant spec: SNWM
Endpoint label: enrichment ratio
Recorded value: ≤ 0.25
--
Variant spec: GICQ
Endpoint label: enrichment ratio
Recorded value: 10.3
--
Variant spec: FQCQ
Endpoint label: enrichment ratio
Recorded value: ≤ 0.25
--
Variant spec: GNCQ
Endpoint label: enrichment ratio
Recorded value: 12.1
--
Variant spec: SKKC
Endpoint label: enrichment ratio
Recorded value: ≤ 0.25
--
Variant spec: SQYS
Endpoint label: enrichment ratio
Recorded value: ≤ 0.25
--
Variant spec: SAQN
Endpoint label: enrichment ratio
Recorded value: ≤ 0.25
--
Variant spec: SKTC
Endpoint label: enrichment ratio
Recorded value: 11.1
--
Variant spec: GTCQ
Endpoint label: enrichment ratio
Recorded value: 13.4
--
Variant spec: LLDF
Endpoint label: enrichment ratio
Recorded value: ≤ 0.25
--
Variant spec: WVID
Endpoint label: enrichment ratio
Recorded value: ≤ 0.25
